experiment_summary: small-molecule microarray binders of probe aCHRDL2, primary screen, biochemical, biotinylated probe, 635/667 nm fluorescence (AID 1100)
recorded_conditions: higher = more signal
Readings of composite z-score for the listed molecules
Please state the value as a number alone, without comment.

Some solved cases for reference:
>>> test_value("CC(C)C(=O)N[C@@H]1CCCN1C(=O)C=Cc1ccccc1")
-0.469
>>> test_value("CCOC(=O)NN=C1C[C@@H](O)[C@@H](O)[C@@H]2[C@@H]3C(=O)N(Cc4ccccc4)C(=O)[C@@H]3CC[C@@H]12")
-0.655
>>> test_value("C[C@@H]1CC[C@@H](C(=O)O)N[C@H]1c1ccc(-c2ccco2)cc1")
-0.826
>>> test_value("CC(C)CON=C1C[C@@H](O)[C@@H](O)[C@@H]2[C@@H]3C(=O)N(c4cccc(Oc5ccccc5)c4)C(=O)[C@@H]3CC[C@H]12")
-0.712
>>> test_value("CO[C@H]1COC(=O)CC=C[C@@H](C)COC(=O)[C@@H](OCc2ccccc2)C=C[C@@H]1C")
-1.54
>>> test_value("C=C(C)C(=O)OC[C@@H]1CN2[C@@H](CC[C@@H](C)[C@@H]2c2ccc(Br)cc2)C(=O)O1")
-0.374
>>> test_value("CCN1C(=O)[C@H]2[C@H]3[C@H](O)[C@H](O)CC(=NNC(=O)OCc4ccc(OC)cc4)[C@H]3CC[C@H]2C1=O")
1.27

Field: next molecule
Asked: Could you tell me which composite z-score is on file for Cc1cc2c(nc1C)CCCN2CC(C)ON=C[C@@H](C)[C@H](OCc1ccccc1)C(C)C (stereo partly drawn) ?
Given back: -0.499

###

Each record here notes measured z-score.
experiment_summary: E. coli DRC41 culture turbidity changes, primary screen, E. coli filamentation inducer project, strain DRC41, OD650, 48 h (AID 1152);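 also: E. coli MC1000 strain DRC41 lacking acrAB efflux pump and sulA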
recorded_conditions: E. coli DRC41 (acrAB sulA), higher = more signal, called active from +8 up or from −8 down
The response must contain the number and no unit.

Would you please look over these solved cases?
>>> test_value("CC(C)=NOC[C@@H](O)COCc1ccco1")
0.534
>>> test_value("C#CCCCON=C1C[C@@H](O)[C@@H](O)[C@@H]2[C@@H]3C(=O)N(C4CCCCC4)C(=O)[C@@H]3CC[C@H]12")
0.747
>>> test_value("CCOC(=O)NN=C1C[C@@H](O)[C@@H](O)[C@@H]2[C@@H]3C(=O)N(Cc4ccc5c(c4)OCO5)C(=O)[C@@H]3CC[C@@H]12")
0.806
>>> test_value("CO[C@H]1COC(=O)CC=C[C@@H](C)COC(=O)[C@@H](OCc2ccccc2)C=C[C@@H]1C")
1.08
>>> test_value("CCN1C(=O)[C@H]2[C@H]3[C@H](O)[C@H](O)CC(=NOC)[C@@H]3CC[C@H]2C1=O")
-0.589

Asked: Which z-score is reported for this compound? CO[C@H]1COC(=O)[C@H](C)NC(=O)CC=C[C@@H](C)[C@H](OC)COC(=O)CC=C[C@@H]1C
Given back: 0.343

###

experiment_summary: modulators of S6 phosphorylation in cells, primary screen, cell-based, A549, cytoblot, luminescence, serum-stimulated (AID 1158);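 also: serum-stimulated A549 lung adenocarcinoma cells; signal is phosphorylated S6 detected by cytoblot immunostaining with HRP secondary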
recorded_conditions: A549 phospho-S6 cytoblot, 5 h, higher = more signal
quantity_measured: z-score

Worked cases, z-score given:
>>> test_value("COc1ccc(COC(=O)NN=C2C[C@@H](O)[C@@H](O)[C@@H]3[C@@H]4C(=O)N(C(C)(C)C)C(=O)[C@@H]4CC[C@H]23)cc1")
1.25
>>> test_value("CC(C)=CCCC(C)=CCON=C1C[C@@H](O)[C@@H](O)[C@@H]2[C@@H]3C(=O)N([C@@H](C)c4ccccc4)C(=O)[C@@H]3CC[C@H]12")
1.27
>>> test_value("CCOC(=O)NN=C1C[C@@H](O)[C@@H](O)[C@@H]2[C@@H]3C(=O)N(Cc4ccccc4)C(=O)[C@@H]3CC[C@@H]12")
-0.154
>>> test_value("CCOC(=O)[C@H](CC(C)C)NC(=O)CCC1CC(OC(=O)NCc2cccc3ccccc23)CC2(CCCC(COC(=O)NCc3ccccc3)O2)O1 (stereo partly drawn)")
-0.194
>>> test_value("O=C1[C@H]2[C@H]3[C@H](O)[C@H](O)CC(=NOCc4ccccc4)[C@H]3CC[C@H]2C(=O)N1Cc1ccccc1")
0.741

Asked: Which z-score is reported for this molecule? CC(C)=NO[C@@H](C)c1cc(-c2c(C)cc(C)cc2C)no1
Given back: 0.702

Asked: Which z-score value is on record for C[C@@H](c1ccccc1)N1C(=O)[C@H]2[C@H]3[C@H](O)[C@H](O)CC(=O)[C@@H]3CC[C@H]2C1=O ?
Given back: 0.732

Asked: What does the record list as z-score for CO[C@H]1COC(=O)[C@H](C)NC(=O)CC=C[C@@H](C)[C@H](OC)COC(=O)CC=C[C@@H]1C ?
Given back: -0.248

Asked: Sample CC(C)CON=C1C[C@@H](O)[C@@H](O)[C@@H]2[C@@H]3C(=O)N(c4cccc(Oc5ccccc5)c4)C(=O)[C@@H]3CC[C@H]12 — what was its z-score?
Given back: -0.157

Asked: So what's the measured z-score for this one? CC(=O)OC[C@H]1O[C@H](C#CC(C)(C)C)C=C[C@@H]1OC(C)=O
Given back: -0.675

###

experimental_target: Torsin-1A (Homo sapiens)
experiment_summary: small-molecule binders of mutant TOR1A in lysate, primary screen, cell lysate, small-molecule microarray, COS7 lysate, 635/667 nm fluorescence (AID 1150);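 also: score pools 667 nm emission and signal to noise measuring lysate protein binding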
recorded_conditions: COS7 hTOR1A mutant lysate, 635 nm fluorescence, higher = more signal
quantity_measured: composite z-score

Asked: # query: composite z-score of entry CCOC(=O)[C@H](Cc1ccccc1)NC(=O)CCC1CC(OC(=O)NCc2cccc3ccccc23)CC2(CCCC(COC(=O)NCCCN3CCCC3=O)O2)O1 (stereo partly drawn)
Given back: 0.327

Asked: # query: composite z-score of entry C#CCCCON=C1C[C@@H](O)[C@@H](O)[C@@H]2[C@@H]3C(=O)N(C4CCCCC4)C(=O)[C@@H]3CC[C@H]12
Given back: 0.0924

Asked: Sample CC(C)C(=O)N[C@@H]1CCCN1C(=O)C=Cc1ccccc1 — what was its composite z-score?
Given back: 0.448

Asked: Which composite z-score value is on record for CO[C@@H]1C=CCC(=O)N2CCC[C@H]2C(=O)OC[C@H](C)C(=O)OC[C@H]1C ?
Given back: 1.63

Asked: Given CC(C)=CCCC(C)=CCON=C1C[C@@H](O)[C@@H](O)[C@@H]2[C@@H]3C(=O)N([C@@H](C)c4ccccc4)C(=O)[C@@H]3CC[C@H]12 , state its recorded composite z-score.
Given back: 0.26

Asked: Would you mind telling me what composite z-score value was observed for C[C@@H]1CC[C@@H](C(=O)O)N[C@H]1c1ccc(-c2ccco2)cc1 ?
Given back: 0.406

Asked: # input compound: Cc1ccc(S(=O)(=O)N[C@H]2COC(=O)[C@@H](C)COC(=O)[C@H](C)NC(=O)CC=C[C@H]2C)cc1 ; wanted: its composite z-score
Given back: -0.11

Asked: State the recorded composite z-score for this entry: CC(C)CCN1CCc2nc(-c3ccccc3)c3c(c2C1)CO[C@@H](C)C3
Given back: 0.471

###

System: Human papillomavirus type 1a E7 protein (residues 1-88)
experiment_summary: HPV1a E7 small-molecule binders, primary screen, biochemical, small-molecule microarray, residues 1-88, 635 nm (AID 1129)
recorded_conditions: small-molecule microarray binding, fluorescence 635 nm; higher = more signal
Mark class 1 for reported composite z-score of -0.7 or greater; mark class 0 for anything smaller.

>>> classification("CCN1C(=O)[C@H]2[C@H]3[C@H](O)[C@H](O)CC(=NOC)[C@@H]3CC[C@H]2C1=O")
"class 0"
>>> classification("CC(C)C(=O)N[C@@H]1CCCN1C(=O)C=Cc1ccccc1")
"class 1"
>>> classification("CCCNC(=O)OC[C@H]1O[C@H](CCON=C(C)CCC(=O)OC[C@H]2O[C@H](C#Cc3ccccc3)C=C[C@@H]2Oc2ccc(C)cc2)C=C[C@@H]1Oc1ccc(OC)cc1")
"class 1"
>>> classification("CCCNC(=O)OC[C@H]1O[C@H](CCON=C(C)CCN2CCc3nc(-c4ccccc4)c(-c4ccccc4)cc3C2)C=C[C@@H]1Oc1ccc(OC)cc1")
"class 1"

Field: next compound
Asked: Tell me whether composite z-score is at least -0.7 here: C#CCCCON=C1C[C@@H](O)[C@@H](O)[C@@H]2[C@@H]3C(=O)N(C4CCCCC4)C(=O)[C@@H]3CC[C@H]12
Given back: class 1

###

experimental_target: Dihydroorotate dehydrogenase (quinone), mitochondrial (Plasmodium falciparum (isolate 3D7)) (UniProt Q08210)
Sequence (Q08210 whole entry, looked up): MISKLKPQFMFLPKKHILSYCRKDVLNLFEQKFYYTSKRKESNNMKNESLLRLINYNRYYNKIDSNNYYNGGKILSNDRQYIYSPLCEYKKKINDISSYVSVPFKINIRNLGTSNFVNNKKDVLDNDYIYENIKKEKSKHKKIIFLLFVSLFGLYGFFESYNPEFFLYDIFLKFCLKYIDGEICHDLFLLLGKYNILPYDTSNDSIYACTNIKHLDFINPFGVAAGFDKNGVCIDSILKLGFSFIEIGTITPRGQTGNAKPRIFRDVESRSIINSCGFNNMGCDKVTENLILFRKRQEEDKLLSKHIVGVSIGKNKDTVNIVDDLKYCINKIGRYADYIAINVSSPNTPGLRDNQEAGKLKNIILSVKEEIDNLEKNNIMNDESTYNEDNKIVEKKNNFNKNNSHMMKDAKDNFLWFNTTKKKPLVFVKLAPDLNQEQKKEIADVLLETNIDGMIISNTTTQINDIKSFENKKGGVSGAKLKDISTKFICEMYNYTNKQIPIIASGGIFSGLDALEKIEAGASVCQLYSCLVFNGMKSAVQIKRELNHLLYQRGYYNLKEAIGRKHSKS
experiment_summary: PfDHODH enzyme inhibitors, primary screen, biochemical, C-terminal His tag, absorbance 600 nm (AID 1175);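 also: recombinant parasite enzyme with a five histidine tag at its C terminus; test concentration not given here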
recorded_conditions: DCIP absorbance 600 nm, higher = more signal, called active from +8 up or from −8 down
quantity_measured: composite z-score
Field format: numeric only.

>>> test_value("CC(C)CON=C1C[C@@H](O)[C@@H](O)[C@@H]2[C@@H]3C(=O)N(c4cccc(Oc5ccccc5)c4)C(=O)[C@@H]3CC[C@H]12")
-0.564
>>> test_value("COc1ccc(COC(=O)NN=C2C[C@@H](O)[C@@H](O)[C@@H]3[C@@H]4C(=O)N(C(C)(C)C)C(=O)[C@@H]4CC[C@H]23)cc1")
-1.31
>>> test_value("Cc1cc2c(nc1C)CCCN2CC(C)ON=C[C@@H](C)[C@H](OCc1ccccc1)C(C)C (some centres not stated)")
0.103

Asked: Looking for the measured composite z-score of CO[C@@H]1COC(=O)CC=C[C@H](C)COC(=O)[C@H](C)NC(=O)CC=C[C@H]1C , can you help?
Given back: 1.09

Asked: For the compound CCOC(=O)CCN1C(=O)[C@H]2[C@H]3[C@H](O)[C@H](O)CC(=NNC(=O)OCC)[C@@H]3CC[C@H]2C1=O , what composite z-score is on record?
Given back: -0.31

Asked: Item CC(=O)OC[C@H]1O[C@H](C#CC(C)(C)C)C=C[C@@H]1OC(C)=O has what recorded composite z-score?
Given back: -0.187

Asked: What measured composite z-score goes with CC(C)C(=O)N[C@@H]1CCCN1C(=O)C=Cc1ccccc1 ?
Given back: -1.3

Asked: Name the reported composite z-score value associated with the compound CC(C)=NOCc1ccc(-c2cn([C@@H]3COC[C@H]3O)nn2)cc1
Given back: -0.478

Data provenance: PubChem BioAssay
